Exercise: state measured half-life for each of the compounds provided.
# METHOD NOTES: Half life in human liver microsomes at 1 mg/ml in presence of NADPH regenerating system by HPLC analysis
# Type: ADME, microsome
Answers are plain numbers, in min.

Solved entries:
Cc1cc(C(=O)N[C@@H](Cc2ccc(F)cc2)C(=O)N[C@@H](C[C@@H]2CCCNC2=O)[C@@H](O)C#N)no1 | 8
CC(=O)O[C@@H](C#N)[C@H](C[C@@H]1CCCNC1=O)NC(=O)[C@H](Cc1ccc(F)cc1)NC(=O)c1cc(C)on1 | 64
Cc1cc(C(=O)N[C@@H](Cc2ccc(F)cc2)C(=O)N[C@@H](C[C@@H]2CCCNC2=O)[C@H]2OC(=O)N(C(C)C)C2=N)no1 | 76

Attention now shifts to the item below.
Query (compound): CCCN1C(=N)[C@@H]([C@H](C[C@@H]2CCCNC2=O)NC(=O)[C@H](Cc2ccc(F)cc2)NC(=O)c2cc(C)on2)OC1=O ; field requested: half-life 40
